The following binders are shown together with reported kon values.
- measurement_target: T1, Human Angiopoietin-2 full-length (hAng2) (human, UniProt O15123 19-496)
- T1 construct: The cell assays used full-length hAng2 from R&D Systems; also called human Ang2; A2
- T1 sequence: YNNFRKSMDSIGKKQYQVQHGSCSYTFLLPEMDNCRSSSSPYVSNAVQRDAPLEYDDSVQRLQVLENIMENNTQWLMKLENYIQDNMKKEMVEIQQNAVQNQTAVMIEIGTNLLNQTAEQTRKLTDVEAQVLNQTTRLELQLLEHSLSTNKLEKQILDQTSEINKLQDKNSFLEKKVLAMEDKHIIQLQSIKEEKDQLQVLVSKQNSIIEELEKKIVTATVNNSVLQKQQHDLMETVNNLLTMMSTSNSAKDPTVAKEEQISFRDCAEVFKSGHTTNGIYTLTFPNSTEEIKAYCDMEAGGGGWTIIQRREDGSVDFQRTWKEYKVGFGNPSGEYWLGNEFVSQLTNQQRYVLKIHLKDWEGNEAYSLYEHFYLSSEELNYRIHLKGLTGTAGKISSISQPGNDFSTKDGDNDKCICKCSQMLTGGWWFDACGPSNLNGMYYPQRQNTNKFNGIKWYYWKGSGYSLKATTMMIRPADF
- assay_comment: BLI (Octet), hAng2 fixed on AR2G sensor, antibody 3.125-50 nM in solution, 1:1 global fit
Output spec: scalar in M⁻¹ s⁻¹, unitless text.

mouse anti-Ang2 antibody 4E2 (antibody, V domains shown, Mouse monoclonal antibody from a hybridoma, purified on Protein G) VH: EVQLQQSGPELEKPGASVKISCKASGYSFTGYNMNWVKQSNGKSLEWIGNIDPYYGGTSYNQKFKGKATLTVDKSSSTAYMQLKSLTSEDSAVYYCVRYGNYVDYWGQGTTLTVSS VL: DIVMTQSHKFMSTSVGDRVSITCKASQDVSTAVAWYQQKPGQSPKLLIYWASTRHTGVPDRFTGSGSGTDYTLTISSVQAEDLALYYCQQHYNTPPTFGSGTKLEIK = 28300

Sure, the documented kon for mouse anti-Ang2 antibody 4B9 (antibody, V domains shown, Mouse monoclonal antibody from a hybridoma (KCLRF-BP-00418), purified on Protein G) VH: EVQLVESGGGLVKPGGSLKLSCAASGFTFSDYYMYWVRQTPEKRLEWVATISVGGSFTYYPDSVKGRFTISRDNAKNNLYLQMSSLKSEDTAMYYCARDWGLRPWFVYWGQGTLVTVSA VL: DIVMTQSHKFMSTSVGDRVSITCKASQDVSTAVAWYQQKPGQSPKLLIYWASTRHTGVPDRFTGSGSGTDYTLTISSVQAEDLALYYCQQHYSTPPTFGSGTKLEIK is 137000

The recorded kon for entry mouse anti-Ang2 antibody 2F10 (antibody, V domains shown, Mouse monoclonal antibody from a hybridoma, purified on Protein G) VH: QVQLVESGGGLVKPGGSLKLSCAASGFTFSDYYMYWIRQTPEKRLEWVATINDGGSYTYYPDSVKGRFTISRDNAKNNLYLQMSSLKSEDTAMYYCARDWGLRPWFVYWGQGTLVTVSA VL: DIVMTQSHKFMSTSVGDRVSITCKASQDVSTAVAWYQQKPGQSPKLLIYWASTRHTGVPDRFTGSGSGTDYTLTISSVQAEDLALYYCQQHYTTPPTFGSGTKLEIK equals 124000

Record mouse anti-Ang2 antibody 2C8 (antibody, V domains shown) VH: QVQLQQSGPQLVRPGASVKISCKASGYSFTSYWMHWVKQRPGQGLEWIGMIDPSDSETRLNQKFKDKASLTVDKSSSTAYMQLSSPTSGDSAVYYCARRFYYGSDWYFDVWGAGSTVTVSS VL: DIVMTQSHKFMSTSVGDRVSITCKASQDVGTAVAWYQQKPGQSPKLLIYWASTRHTGVPDRFTGSGSGTDFTLTISNVQSEDLADYFCQQYSSYPLTFGSGTKLEIK , field kon: 77800
